Reference for the values: patent US20070264679A1

# target-entity: Reticulocyte LOX (Oryctolagus cuniculus)
# Construct: purchased Biomol Inc. (Plymouth Meeting, Pa., USA)
# Sequence (P12530 1-663): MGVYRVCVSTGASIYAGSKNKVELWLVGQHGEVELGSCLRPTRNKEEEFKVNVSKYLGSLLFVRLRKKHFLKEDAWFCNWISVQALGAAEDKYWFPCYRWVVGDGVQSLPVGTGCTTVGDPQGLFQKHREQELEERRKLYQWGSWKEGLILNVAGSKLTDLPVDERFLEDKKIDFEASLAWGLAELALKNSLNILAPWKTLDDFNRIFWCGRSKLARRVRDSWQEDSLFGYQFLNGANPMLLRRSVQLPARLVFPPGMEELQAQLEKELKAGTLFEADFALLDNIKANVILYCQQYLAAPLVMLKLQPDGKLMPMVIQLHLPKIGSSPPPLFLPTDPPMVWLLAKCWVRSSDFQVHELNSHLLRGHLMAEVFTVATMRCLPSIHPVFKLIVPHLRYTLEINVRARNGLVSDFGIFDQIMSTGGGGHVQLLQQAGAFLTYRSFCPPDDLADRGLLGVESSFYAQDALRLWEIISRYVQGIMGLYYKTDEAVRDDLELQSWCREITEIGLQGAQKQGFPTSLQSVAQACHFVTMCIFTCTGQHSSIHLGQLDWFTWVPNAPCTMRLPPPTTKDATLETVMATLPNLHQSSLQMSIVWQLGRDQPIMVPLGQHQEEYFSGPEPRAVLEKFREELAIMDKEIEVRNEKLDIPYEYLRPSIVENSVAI
# procedure-summary: Kinetics of oxygenation of linoleoylated substrates by reticulocyte LOX
# Format: biochemical, Rabbit
# run-conditions: reticulocyte LOX 8.2 units/ml, substrate 3-100 μM, 50 mM phosphate buffer pH 7.4, 25° C.
readout-name: Km (µM)

Example entries and their recorded answers appear below.
CCCCC/C=C\C/C=C\CCCCCCCC(=O)OCC(O)COP(=O)(O)O (centres unmarked); 8.3
CCCCC/C=C\C/C=C\CCCCCCCC(=O)OCC(O)COP(=O)([O-])OCC[N+](C)(C)C (centres unmarked); 17.5
CCCCC/C=C\C/C=C\CCCCCCCC(=O)OC[C@H](COP(=O)(O)O)OC(=O)CCCCCCC/C=C\C/C=C\CCCCC; 90

(P) CCCCC/C=C\C/C=C\CCCCCCCC(=O)O
(Q) CCCCC/C=C\C/C=C\CCCCCCCC(=O)OC[C@H](COP(=O)([O-])OCC[N+](C)(C)C)OC(=O)CCCCCCC/C=C\C/C=C\CCCCC
Recorded Km values differ for P and Q ; which one is higher? Record your answer as the label of the chosen record.
Q
